# Test system: MDA-MB-468 breast
# MEASUREMENT_DESCRIPTION: NCI-60 one-dose screen, 48 h (100 = growth as untreated, 0 = no growth, -100 = all killed)
# CONDITION_SUMMARY: 10 µM unless noted
# Protocol: Growth inhibition of the MDA-MB-468 human Breast tumor cell line is measured as a screen for anti-cancer activity. Cells are grown in 96 well plates and exposed to the test compound for 48 hours. Compounds are tested at a single concentration, which is 10^-5 M for most compounds. The reported endpoint is percent growth (GI% or GIPRCNT), where numbers from 0 - 100% represent growth inhibition, and numbers from -100% - 0 represent cell death. […]
Compounds without any hit were thinned out: in the full panel of roughly 83,000, 20% have a hit. The source made the active and inactive calls. The calls were made as follows: active = growth percent below 10; inactive = the rest.
TEST_READOUT: growth

Q: Consider the compound Fc1ccc(NC(=S)c2ccccc2)cc1 . State its measured growth.
Ans: 97.5% (inactive)

Q: Consider the compound NCCOc1ncccc1/C=C1\c2ccccc2-c2ccc(F)cc21 . State its measured growth.
Ans: -24.1% (active)

Q: Consider the compound COc1ccc(Cn2cnc3cc(C(=O)Nc4cccc5ccccc45)ccc32)c(OC)c1 . State its measured growth.
Ans: -31.6% [30 µM] (active)

Q: Consider the compound CCOc1ccccc1/C=N/Nc1nc2ccccc2o1 . State its measured growth.
Ans: 28.1% (inactive)

Q: Consider the compound O=C(Nc1cccc(-c2ccc(N3CCOCC3)nn2)c1)Nc1cccc(C(F)(F)F)c1 . State its measured growth.
Ans: 29.1% (inactive)

Q: Consider the compound COc1c(B(O)O)cc(F)cc1-c1nc2ccc3[nH]ncc3c2c2c1CCCC2 . State its measured growth.
Ans: -4.35% (active)

Q: Consider the compound NC(=O)c1c(NC(=O)/C=C/c2cccs2)sc2c1CCC(=O)C2 . State its measured growth.
Ans: 37.2% (inactive)

Q: Consider the compound Cc1ccc(SCN2CCN(c3cccc(Cl)c3)CC2)cc1 . State its measured growth.
Ans: 115% (inactive)

Q: Consider the compound COc1ccc2c(c1)NC(=O)CN2c1nc(C)nc2ccccc12 . State its measured growth.
Ans: 9.26% (active)

Q: Consider the compound O=S(=O)(Nc1cc(Sc2cccc3cccnc23)c(O)c2ccccc12)c1ccccc1 . State its measured growth.
Ans: -42.6% (active)

Q: Consider the compound CN1CCN(Cc2ccc(C(=O)Nc3cncc(C#Cc4cnc(N)c5ccccc45)c3)cc2C(F)(F)F)CC1 . State its measured growth.
Ans: -61.9% (active)

###

# Tested on: MDA-MB-468 breast
# MEASUREMENT_DESCRIPTION: NCI-60 one-dose screen, 48 h
# CONDITION_SUMMARY: 10 µM unless noted
This is part of a sample that, as a whole, favours compounds with a hit. Of some 83,000 tested, about 20% had one in any assay. Calls of active or inactive are those of the source. How the source made its calls: active means growth percent below 10; inactive means the rest.
// one of active, inactive, no free text

Q: Field: outcome | Entry: O=[N+]([O-])c1ccc(Oc2ccc(-c3ccccc3)cc2)cc1
Ans: inactive

Q: Field: outcome | Entry: CCCCCCN1C(=O)C2=C(c3ccc(Cl)cc3)Nc3c(c(C)nn3-c3ccccc3)C2c2ccccc21 (stereo not drawn)
Ans: inactive

Q: Field: outcome | Entry: O=C1/C(=C/c2ccc(Cl)c(Cl)c2)CN(C(=O)C(Cl)Cl)C/C1=C\c1ccc(Cl)c(Cl)c1
Ans: active

Q: Field: outcome | Entry: C=C(C)[C@@H]1CC[C@]2(C)[C@H](CC=C3[C@@H]4CC(C)(C)CC[C@]4(C=O)CC[C@]32C)[C@@]1(C)CCCN
Ans: inactive

Q: Field: outcome | Entry: NC(=O)c1ccccc1OCC(O)CO (stereo not drawn)
Ans: inactive

Q: Field: outcome | Entry: COc1cc(-c2nn(-c3cccc(NC(=O)CCN4CCN(C)CC4)c3)cc2-c2ccncc2)ccc1Cl
Ans: inactive

Q: Field: outcome | Entry: COc1ccc(CN(c2ccc(C)cc2)C2OC(=O)c3ccccc32)cc1OC (stereo not drawn)
Ans: inactive

Q: Field: outcome | Entry: COc1cccc(OC)c1-c1nnn(C)c1C(=S)N1CCN(c2ccc([N+](=O)[O-])cc2Cl)CC1
Ans: inactive

Q: Field: outcome | Entry: CCCCCCCC(=O)SCC/C=C/[C@@H]1CC(=O)NCc2cccc(n2)CN(Cc2ccc3ccccc3c2)CC(=O)N[C@@H](C(C)C)C(=O)O1
Ans: active

Q: Field: outcome | Entry: Cc1ccccc1Nc1n[nH]c(Cc2ccccc2)n1
Ans: inactive

Q: Field: outcome | Entry: O=S(=O)(NCC[C@@H]1C[C@H]1c1ccc2ccccc2c1)c1ccc(C(F)(F)F)cc1
Ans: inactive

Q: Field: outcome | Entry: O=C1OC[C@H]2[C@H](c3ccc(O)c(O)c3)c3cc(O)c(O)cc3C[C@H]12
Ans: inactive

Q: Field: outcome | Entry: O=C1c2ccccc2C(=O)c2sc(Nc3cccc(Cl)c3)nc21
Ans: inactive

Q: Field: outcome | Entry: N#CC(C#N)N=Nc1cc(Cl)ccc1Cl
Ans: inactive

Q: Field: outcome | Entry: O=C(c1ccccc1)[C@H]1[C@@H]2CCCN2[C@]2(C(=O)Nc3ccc(F)cc32)[C@]12C(=O)Nc1ccccc12
Ans: inactive

Q: Field: outcome | Entry: COc1cc(/C=C/C(=O)c2ccc(Cl)cc2)cc(CN2CCCCC2)c1O
Ans: inactive

Q: Field: outcome | Entry: CSC1=NC(=Nc2c(C)cccc2C)C2(CCC(C(C)(C)C)CC2)N1c1ccc(Cl)cc1 (stereo not drawn)
Ans: inactive

Q: Field: outcome | Entry: CC[C@H](C)[C@@H](C(=O)OC)n1cc(CNC(=O)[C@@H](Cc2ccccc2)NC(=O)OCc2ccccc2)nn1
Ans: inactive

Q: Field: outcome | Entry: CSc1nc2sc3c(c2c(=O)n1-c1ccc(C(C)C)cc1)CCC(=O)C3
Ans: active

Q: Field: outcome | Entry: ClCc1cccc2c(CCl)cccc12
Ans: active

Q: Field: outcome | Entry: CC(=O)N(C)C1CCc2c(sc(NC(=O)c3ccc(C(C)(C)C)cc3)c2C(N)=O)C1 (stereo not drawn)
Ans: inactive

Q: Field: outcome | Entry: NS(=O)(=O)c1cc2c(cc1Cl)NC=NS2(=O)=O
Ans: inactive

Q: Field: outcome | Entry: [Ag].[Ag].[NH-]S(=O)(=O)c1ccc(N=Nc2cc(N=Nc3ccc(S([NH-])(=O)=O)cc3)c3c(NC(=O)C(Cl)Cl)cccc3c2OC(=O)C(Cl)Cl)cc1.[c-]1nccs1.[c-]1nccs1
Ans: inactive

Q: Field: outcome | Entry: CCOC(=O)c1cc2c(n1C)-c1nc(NC(C)=O)sc1CCC2
Ans: inactive

Q: Field: outcome | Entry: C[C@@H]1C[C@H]2C(=O)O[C@@H](C)[C@H](NC(=O)[C@H](Cc3cc(F)cc(F)c3)NC(=O)Nc3ccc(Cl)cc3F)C(=O)N3C[C@H](O)C[C@H]3C(=O)N3CCN(C)C[C@H]3C(=O)N[C@@H](C)C(=O)N2C1
Ans: inactive

Q: Field: outcome | Entry: CCCC(=O)NC(c1ccc(N(CC)CC)cc1)c1cc(C)c2cccnc2c1O (stereo not drawn)
Ans: active

Q: Field: outcome | Entry: C#CC[C@@H]1C[C@]2(C)[C@H]3CC[C@@H]4[C@H]5C(C(=C)C)CC[C@]5(C(=O)NCCCCN)CC[C@@]4(C)[C@]3(C)CC[C@H]2C(C)(C)[C@H]1OC(C)=O (stereo partly drawn)
Ans: active

Q: Field: outcome | Entry: CN1CCN(Cc2ccc(NC(=O)c3nc4ccc5[nH]ncc5c4c4c3CCCC4)cc2C(F)(F)F)CC1
Ans: active

Q: Field: outcome | Entry: COc1cc(-c2nc3sccn3c2-c2ccnc(NCCNS(=O)(=O)c3ccc(Cl)cc3)n2)ccc1F
Ans: inactive

Q: Field: outcome | Entry: CCCCCCNC(=O)Nc1ccc2cc3ccc(NC(=O)NCCCCCC)cc3nc2c1
Ans: inactive

Q: Field: outcome | Entry: COc1ccc(C(C)C=O)cc1 (stereo not drawn)
Ans: inactive

Q: Field: outcome | Entry: COc1ccc2c(c1)c(CC(=O)[Se]CC#N)c(C)n2C(=O)c1ccc(Cl)cc1
Ans: active

Q: Field: outcome | Entry: Nc1c(C(=O)Nc2cccc3ccccc23)sc2nc3c(cc12)CCCCCC3
Ans: inactive

Q: Field: outcome | Entry: CCOC(=O)/C=C1\S/C(=N\Nc2cc(=O)[nH]c3ccc(Br)cc23)N(c2ccccc2)C1=O
Ans: inactive

Q: Field: outcome | Entry: CCNC(=O)Nc1ncccc1OCc1ccc(F)cc1
Ans: inactive

Q: Field: outcome | Entry: O=C(O)c1ccc(-c2nn(-c3ccc(C(F)(F)F)cc3)cc2CNc2ccc(Oc3ccccc3)cc2)cc1
Ans: inactive

Q: Field: outcome | Entry: COc1ccc2c(c1)C(c1cc(OC)c3c(c1)OCO3)C1=C(COC1=O)N2 (stereo not drawn)
Ans: active

Q: Field: outcome | Entry: Cn1c(=O)c2[nH]c(CC(=O)O)nc2n(C)c1=O
Ans: inactive
